- target_or_test_system: T1, K754E (Drosophila melanogaster, UniProt Q9W1K4 512-819, K754E)
- T1 sequence: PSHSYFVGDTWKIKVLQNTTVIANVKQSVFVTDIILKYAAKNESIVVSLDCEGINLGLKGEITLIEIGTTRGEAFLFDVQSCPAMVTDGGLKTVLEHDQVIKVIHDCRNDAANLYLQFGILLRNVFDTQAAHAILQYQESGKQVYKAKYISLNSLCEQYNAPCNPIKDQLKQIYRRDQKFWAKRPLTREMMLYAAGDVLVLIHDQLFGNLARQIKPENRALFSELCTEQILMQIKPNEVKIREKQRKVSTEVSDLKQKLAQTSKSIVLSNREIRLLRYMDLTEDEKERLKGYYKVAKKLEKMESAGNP
- assay_name: fluorescence anisotropy; FA: 20 mM HEPES-NaOH pH 7.5, 100 mM NaCl, 10% glycerol, 20 C, 10 nM FAM-RNA; competition: 150 nM Egl512-819 + 10 nM FAM-K10 TLS, same buffer
- details: protein: recombinant; tags: N-terminal GST; label: 5'-6-FAM; hairpin with two bulges
reported_property: Kd (nM)
The response must be a number in nM with no trailing unit.

Quick note, Kd for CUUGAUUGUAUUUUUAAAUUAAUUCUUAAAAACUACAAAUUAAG (structured_RNA) [K10 TLS (FAM)] landed at 263

Taken from paper doi:10.1101/2025.08.03.668247.
